Tested on: ACHN renal
assayText: NCI-60 one-dose screen, 48 h
assaySetup: 10 µM unless noted
About 83,000 compounds went through this panel and 20% of them were active in at least one assay; those are over-represented in the sample as a whole. Active and inactive are the calls of the source. The calls were made as follows: active = growth percent below 10; inactive = the rest.
The categories you may choose from are active, inactive

Reference set (10 entries):
O=C(Nc1ccc(-c2ccc3c(c2)NC(=O)/C3=C\c2ccc[nH]2)cc1)NC1CC1 :: inactive
N#C/C(=C\c1ccc(C(F)(F)F)cc1)c1cc2ccccc2[nH]1 :: inactive
COc1cc(/C=C2\COc3ccc(-c4ccccc4)cc3C2=O)cc(OC)c1 :: inactive
O=c1c2c(c(=O)n1O)c1c3ccc[nH]c3nc1c1nc3[nH]cccc3c12 :: inactive
Cc1ccc(C(=O)/C(=C\c2ccc([N+](=O)[O-])cc2)S(=O)Cc2ccc(F)cc2)cc1 (stereo unspecified) :: active
c1ccc2cc(Cn3c(-c4cccc5ccccc45)[n+](Cc4ccc5ccccc5c4)c4c5ccccc5c5ccccc5c43)ccc2c1 :: active
COc1ccc(C(=O)CSc2nc(-c3cc(OC)ccc3OC)cc(-c3ccc(Cl)cc3)c2C#N)cc1 :: inactive
Cc1ccc(NC(=O)Cc2ccc(/C=C/C(=O)c3ncc[nH]3)cc2)cc1 :: inactive
C#CCNC(=O)c1cccc2c1cc(C)n2-c1nc2c(c(NCc3ccccc3)n1)CCCC2 :: active
COc1ccc(NC(N)=NCCCOc2ccc(F)cc2)cc1 :: inactive

Pending molecule:
Inquiry: Short answer needed: outcome of this test for O=C(/C=C(/C=C/c1csc2ccccc12)OB(F)F)/C=C/c1csc2ccccc12 ?
Reply text: active
